The origin of these recorded values is PubChem BioAssay AID463082.

biological target: Platelet-activating factor acetylhydrolase (Homo sapiens) (UniProt Q13093); test: pPAFAH enzyme inhibitors, primary screen, biochemical, fluorescence polarization, human (AID 463082); details: recombinant pPAFAH, FP-rhodamine probe fluorescence polarization; at 3.39 µM; hits give high values;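 also: inhibitors block binding of the rhodamine activity-based probe so polarization drops; 0% = enzyme with DMSO and 100% = wells lacking pPAFAH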
Sequence (Q13093 whole entry, looked up): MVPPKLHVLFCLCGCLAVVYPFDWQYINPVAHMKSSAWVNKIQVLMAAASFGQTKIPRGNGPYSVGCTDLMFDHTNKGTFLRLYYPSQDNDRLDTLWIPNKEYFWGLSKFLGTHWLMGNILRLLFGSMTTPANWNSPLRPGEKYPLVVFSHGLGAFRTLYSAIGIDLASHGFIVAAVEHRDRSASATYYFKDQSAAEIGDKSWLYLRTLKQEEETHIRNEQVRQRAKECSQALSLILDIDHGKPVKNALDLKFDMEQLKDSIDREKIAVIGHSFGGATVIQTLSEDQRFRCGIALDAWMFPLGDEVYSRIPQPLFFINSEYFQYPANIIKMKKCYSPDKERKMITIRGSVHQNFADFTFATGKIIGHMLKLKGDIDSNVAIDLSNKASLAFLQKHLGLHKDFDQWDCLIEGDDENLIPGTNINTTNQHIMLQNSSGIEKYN
The whole screen tested about 330,000 compounds, of which about 4,900 (1.5%) were called active. Shown is part of a subset that was picked to be rich in actives.
readout_label: inhibition (%)
Supply the numeric figure in %, leaving out any unit text.

Field request: inhibition | item: Cc1ccc(Nc2nc(CSc3nnnn3-c3ccccc3)cc(=O)[nH]2)cc1 27.2

Field request: inhibition | item: N#CCc1c(C#N)c(N)nc(N2CCCC2)c1C#N -3.2

Field request: inhibition | item: CS/C(=C\C(=O)c1ccco1)Nc1ccccc1Cl 3.63

Field request: inhibition | item: Cc1cc(-c2csc(N)n2)c(C)n1Cc1ccccc1 12.4

Field request: inhibition | item: CN(C)/C=N/c1cc(=O)n(C)c(=O)n1CC1CC1 -0.49

Field request: inhibition | item: CN(C)C(=O)CCc1ccc2c3c([nH]c2c1)[C@]1(C)[C@@H](C(=O)N2CCCCC2)C[C@H](CC(=O)NCCC2=CCCCC2)C(=O)N1CC3 9.04

Field request: inhibition | item: CCOc1ccc(N/C(N)=N/c2nc(C)c(C)c(=O)[nH]2)cc1 5.08

Field request: inhibition | item: CCC(=O)Nc1sc(C(=O)Nc2ccccc2)c(C)c1C(=O)OC 50.5

Further cases:
Field request: inhibition | item: CC(=O)Nc1cccc(/C(C)=N/NC(=O)c2c(-c3ccccc3Cl)noc2C)c1 5.03

Field request: inhibition | item: CC/C(O)=C1\C(=O)CC(C)(C)CC1=NCCc1nc2ccccc2[nH]1 -2.43

Field request: inhibition | item: FC(F)(F)c1cccc(Cc2noc(CN3CCC(N4CCCCC4)CC3)n2)c1 -0.07

Field request: inhibition | item: CCOC(=O)C1C(=O)OC2(CCCC2)C1C(=O)OCC (stereo not drawn) -0.69

Field request: inhibition | item: CC(=O)Nc1ccc(NC(=O)C2CCCN(S(=O)(=O)c3ccc(Cl)cc3)C2)cc1 (stereo not drawn) 0.93

Field request: inhibition | item: CC(C)NS(=O)(=O)c1ccc(OCC(=O)NC2CCCCCC2)cc1 6.56

Field request: inhibition | item: CCOC(=O)c1sc(NC(=O)COc2ncnc3ccccc23)c(C(=O)OCC)c1C 0.72

###

target: Platelet-activating factor acetylhydrolase (Homo sapiens) (UniProt Q13093); experiment: pPAFAH enzyme inhibitors, primary screen, biochemical, fluorescence polarization, human (AID 463082); conditions: recombinant pPAFAH, FP-rhodamine probe fluorescence polarization; at 3.39 µM
About 4,900 (1.5%) of roughly 330,000 compounds were called active.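 The calls were made as follows: active = inhibition above the mean inhibition across the screen plus 3 SD (cut at about 25% in these data); inactive = the rest.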 Many of the other results were omitted from the sample, so actives are more common in it than they were.
Outcome field: choose from 1.0 = active, 0.0 = inactive

See these solved cases before continuing.
Recorded call for O=C(COC(=O)c1ccc(F)cc1)Nc1ccc2c(c1)OCO2 ? 0.0

Recorded call for Cc1ccc(C)c(S(=O)(=O)Nc2cc(C)on2)c1 ? 0.0

Recorded call for O=C(OCC1OC(Oc2ccc(O)cc2)C(O)C(O)C1O)c1ccccc1 (stereo not given) ? 0.0

Recorded call for O=C1N[C@H](Cc2c[nH]c3ccccc23)COC(=O)[C@H](Cc2ccc(F)cc2)C/C=C\C[C@H]1CC(=O)N(CCO)Cc1ccccc1 ? 0.0

Recorded call for COc1ccc(CN2C3CCCC2CC(NC(=O)c2cccc(F)c2)C3)cc1 (stereo not given) ? 0.0

Next compound, please.
Recorded call for CCCCOc1ccc(C(=O)NCC(=O)OCC(=O)N2CCN(S(=O)(=O)c3ccc(C)cc3C)CC2)cc1 ? 1.0

###

target: Platelet-activating factor acetylhydrolase (Homo sapiens); test: pPAFAH enzyme inhibitors, primary screen, biochemical, fluorescence polarization, human (AID 463082); settings: recombinant pPAFAH, FP-rhodamine probe fluorescence polarization; at 3.39 µM; hits give high values
Screen size: about 330,000 compounds; about 4,900 (1.5%) were called active. Many of the other results were omitted from the sample, so actives are more common in it than they were.
Output T for inhibition not less than 10%; output F otherwise.

See these solved cases before continuing.
Could you verify whether the entry COCC(C)NC(=O)c1ccc(Cl)c(Cl)c1 (stereo unspecified) shows inhibition of no less than 10%? F

Could you verify whether the entry O=C(NCCc1ccccn1)c1cc(C(=O)C2CCCCC2)c[nH]1 shows inhibition of no less than 10%? F

Could you verify whether the entry Cc1ccc(C(=O)NCC(=O)OCC(=O)NC2CCCCCCC2)cc1 shows inhibition of no less than 10%? F

Could you verify whether the entry Cc1cc(C)cc(OCC(=O)OCC(=O)NC2CCCC2)c1 shows inhibition of no less than 10%? T

Could you verify whether the entry O=C(COC(=O)CNS(=O)(=O)c1ccc(F)c(F)c1F)NC1CCCC1 shows inhibition of no less than 10%? T

Next compound, please.
Could you verify whether the entry COc1ccc(C2=NN(c3nc4ccccc4s3)C(=O)C2)cc1 shows inhibition of no less than 10%? T

###

target: Platelet-activating factor acetylhydrolase (Homo sapiens) (UniProt Q13093); assay: pPAFAH enzyme inhibitors, primary screen, biochemical, fluorescence polarization, human (AID 463082); settings: recombinant pPAFAH, FP-rhodamine probe fluorescence polarization; at 3.39 µM;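 also: inhibitors block binding of the rhodamine activity-based probe so polarization drops; 0% = enzyme with DMSO and 100% = wells lacking pPAFAH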
Hit rate of the full screen: of about 330,000 compounds, about 4,900 (1.5%) were called active.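 The calls were made as follows: active = inhibition above the mean inhibition across the screen plus 3 SD (cut at about 25% in these data); inactive = the rest.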 For the sample, actives were picked, then their nearest neighbours and some compounds at random.
Outcome field: choose from yes (1) for active, no (0) for inactive

Recorded call for COC(=O)c1ccc(COc2ccc(/C=C/C(=O)c3ccc(OC)c(CSCC(=O)O)c3)cc2OC)cc1 ? yes (1)

Recorded call for O=C(NCc1ccc(F)cc1)C1CCC(CNc2c(N3CCOCC3)c(=O)c2=O)CC1 (stereo not given) ? no (0)

Recorded call for COc1ccc(/C=C/C(=O)N2CCCC2)cc1OC ? no (0)

Recorded call for COc1ccc(NS(=O)(=O)c2cccc(C(=O)NCCc3ccc(S(N)(=O)=O)cc3)c2)cc1 ? yes (1)

Recorded call for CC(C)c1ccc(NC(=S)NNc2ccc(Cl)c(C(=O)O)c2)cc1 ? yes (1)

###

target: Platelet-activating factor acetylhydrolase (Homo sapiens) (UniProt Q13093); test: pPAFAH enzyme inhibitors, primary screen, biochemical, fluorescence polarization, human (AID 463082); conditions: recombinant pPAFAH, FP-rhodamine probe fluorescence polarization; at 3.39 µM; hits give high values;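 also: inhibitors block binding of the rhodamine activity-based probe so polarization drops; 0% = enzyme with DMSO and 100% = wells lacking pPAFAH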
In all, about 330,000 compounds went through this assay and about 4,900 (1.5%) were called active. Only a selection was taken, and actives are over-represented in it overall.
Measured inhibition of individual entries
Supply the numeric figure in %, leaving out any unit text.

# returns recorded inhibition (system: Platelet-activating factor acetylhydrolase (Homo sapiens) (UniProt Q13093)) for COc1cccc(CNC(=O)C2CCCN(S(=O)(=O)N3CC(C)CC(C)C3)C2)c1 (stereo not drawn) 2.82

Further cases:
# returns recorded inhibition (system: Platelet-activating factor acetylhydrolase (Homo sapiens) (UniProt Q13093)) for O=C(CCN1CCN(c2ccccc2)CC1)NNC(=S)Nc1ccccc1 3.64

# returns recorded inhibition (system: Platelet-activating factor acetylhydrolase (Homo sapiens) (UniProt Q13093)) for CCC(C)Cn1c(O)cc2nn(-c3nc4ccccc4s3)c(=O)c-2c1C (stereo not drawn) 49.8

# returns recorded inhibition (system: Platelet-activating factor acetylhydrolase (Homo sapiens) (UniProt Q13093)) for COc1ccc(OC)c(-c2csc(NC(=O)COC(=O)C3CC3)n2)c1 5.42

# returns recorded inhibition (system: Platelet-activating factor acetylhydrolase (Homo sapiens) (UniProt Q13093)) for Cc1ccccc1C(=O)NC(=S)Nc1ccc(N2CCN(C(=O)c3ccccc3)CC2)cc1 8.73

###

target: Platelet-activating factor acetylhydrolase (Homo sapiens) (UniProt Q13093); test: pPAFAH enzyme inhibitors, primary screen, biochemical, fluorescence polarization, human (AID 463082); details: recombinant pPAFAH, FP-rhodamine probe fluorescence polarization; at 3.39 µM;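 also: inhibitors block binding of the rhodamine activity-based probe so polarization drops; 0% = enzyme with DMSO and 100% = wells lacking pPAFAH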
Among all 330,000 compounds or so, about 4,900 (1.5%) were called active.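 Rule for the calls: active = inhibition above the mean inhibition across the screen plus 3 SD (cut at about 25% in these data); inactive = the rest.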 Shown is part of a subset that was picked to be rich in actives.
Outcome field: choose from label 1 = active, label 0 = inactive

See these solved cases before continuing.
Recorded call for CC(NC(=S)NC1CCCCC1)C(c1ccccc1)N1CCOCC1 (centres undefined) ? label 0

Recorded call for CCc1cccc(C)c1NS(=O)(=O)c1c(C)nc2sccn2c1=O ? label 0

Recorded call for COC(=O)c1sc(N2CCN(Cc3ccccc3)CC2)nc1N ? label 0

Recorded call for O=C(Nc1cccn(Cc2c(Cl)cccc2Cl)c1=O)c1ccc(Cl)cc1 ? label 0

Recorded call for CCOC(=O)C(CCOc1cccc(CC)c1)C(=O)OCC ? label 0

Recorded call for Cc1onc(C(=O)NN)c1-c1csc(COc2ccccc2)n1 ? label 0

Recorded call for O=C(CCCN1C(=O)CCC1=O)Nc1ccc(Cl)c(C(F)(F)F)c1 ? label 0

Recorded call for C/C=C(/C)C(=O)O[C@@H]1c2cc3c(c4c2[C@@]2(CO4)C(=O)C(OC)=C(OC)C=C2C[C@@H](C)[C@H]1C)OCO3 ? label 0

Further cases:
Recorded call for NC(=O)c1c(NC(=O)CSc2nnc(-c3ccco3)n2N)sc2c1CCCC2 ? label 1

Recorded call for CCCCOc1ccc(N(CC(=O)NCC2CCCO2)C(=O)CCC(=O)Nc2cc(C)ccn2)cc1 (centres undefined) ? label 0

Recorded call for O=c1[nH]cnc2c1c(-c1ccccc1)cn2-c1ccc(F)cc1 ? label 1

Recorded call for CC(C)(C)NC(=O)NC(=O)COC(=O)C1(C)CC1(Cl)Cl (centres undefined) ? label 0

Recorded call for COc1ccc(S(=O)(=O)NCC(c2ccco2)N2CCOCC2)cc1 (centres undefined) ? label 0

Recorded call for Cc1ccc(O/C=C2\OC(=O)c3ccccc32)cc1 ? label 0

Recorded call for O=C(NCCc1ccco1)c1nn(Cc2ccccc2)c(=O)c2ccccc12 ? label 0

Recorded call for O=C(NC1CCCC1)c1cc(-c2ccccc2)on1 ? label 0

Recorded call for Cc1snc(SCc2c(F)cccc2Cl)c1C#N ? label 1

Recorded call for Cc1ccc(S(=O)(=O)NCc2csc(C)n2)c(C)c1 ? label 1

Recorded call for CCOc1cc(C(=O)N2CCc3cc(OC)c(OC)cc3C2)ccc1OC(F)F ? label 0

Recorded call for O=C(Nc1ccc(F)c([N+](=O)[O-])c1)C1CCCO1 (centres undefined) ? label 0

Recorded call for O=c1c2c(-c3ccccc3)ccnc2[nH]n1-c1ccccc1 ? label 0

Recorded call for Cc1c(C(=O)OCC(=O)N(CCC#N)c2ccccc2)oc2c1ccc1ccccc12 ? label 0

Recorded call for O=C(COC(=O)CC1CC2CCC1C2)NC(=O)NC1CCCC1 (centres undefined) ? label 0

Recorded call for COc1ccccc1OCCC(=O)OCC(=O)NC(=O)NC(C)(C)C ? label 0
